system: UO-31; assay: NCI tumour cell line growth inhibition, 48 h
The source made the active and inactive calls. Rule as the data show it: active = GI50 up to about 1.1 µM and inactive = higher.
Lab note: assign the record to one of y = active, n = inactive

Example results:
[ask] For this compound, state the assay outcome: COC1/C=C\C=C(/C)C(=O)NC2=CC(=O)C(O)=C(CC(C)CC(OC)C(O)C(C)/C=C(\C)C1OC(N)=O)C2=O (stereo not given)
[reply] n

[ask] For this compound, state the assay outcome: O=C1C(c2cnc3ccccc3n2)=C(O)c2ccccc21
[reply] n

[ask] For this compound, state the assay outcome: CC(=O)NCC1(c2ccccc2)CCN(CC2COc3ccccc3O2)CC1 (stereo not given)
[reply] n

More entries:
[ask] For this compound, state the assay outcome: CC[C@H]1C=CCC[C@@]2(C[C@@H]3CC[C@H]4[C@H](C(=O)OCCCCCCCCCCCCCCCC(=O)N(CCCN)C[C@@H](O)CCN)[C@]5(CCC[C@@H](C)O5)NC(=[N+]34)N2)O1
[reply] y

[ask] For this compound, state the assay outcome: c1ccc(/N=c2/sc3ccccc3s/c2=N/c2ccccc2)cc1
[reply] n

[ask] For this compound, state the assay outcome: C(=N\NC1=NCCCN1)/c1ccc(-c2cn3cc(/C=N/NC4=NCCCN4)ccc3n2)cc1
[reply] n

[ask] For this compound, state the assay outcome: Cc1ccc(S(=O)(=O)N/N=C(/CC(=O)c2c(C)[n+]([O-])c3ccccc3[n+]2[O-])C(=O)Nc2ccccc2C)cc1
[reply] n

[ask] For this compound, state the assay outcome: CCCCOC(=O)NC(=O)c1cn(CCCOC(=O)CCCCCCCCC(=O)OCCCn2cc(C(=O)NC(=O)OCCCC)c(=O)[nH]c2=O)c(=O)[nH]c1=O
[reply] n

---

tested on: KM12; assay: NCI tumour cell line growth inhibition, 48 h
Calls of active or inactive are those of the source. No stated cut-off is given here; in the data, active = GI50 up to about 1.1 µM and inactive = higher.
Each item that follows carries a reported GI50.

[ask] Suppose we examine the compound Cn1c(SCc2ccc([N+](=O)[O-])cc2)nnc1C12CC3CC(CC(C3)C1)C2 ; what GI50 value has been reported?
[reply] > 10 µM (inactive)

[ask] Suppose we examine the compound O=NN(CCCl)C(=O)N[C@H]1CC[C@@H](C(=O)O)CC1 ; what GI50 value has been reported?
[reply] > 100 µM (inactive)

[ask] Suppose we examine the compound COC(=O)C(=C/c1ccc(OC)cc1)/C(C(=O)O)=C(/C)c1ccccc1 ; what GI50 value has been reported?
[reply] > 100 µM (inactive)

More entries:
[ask] Suppose we examine the compound Cc1c(C)c(S(=O)(=O)N(CCCCCCN)OCCCN)c(C)c2c1OC(C)(C)CC2 ; what GI50 value has been reported?
[reply] 1.91 µM (inactive)

[ask] Suppose we examine the compound Cc1cc(O)c(O)c(Oc2cc(C)cc(O)c2O)c1 ; what GI50 value has been reported?
[reply] 22 µM (inactive)

[ask] Suppose we examine the compound CC(O)/C=C/C1OC(=O)CC1Nc1ccc(C=O)cc1 (stereo not given) ; what GI50 value has been reported?
[reply] > 100 µM (inactive)

---

Each item that follows carries a reported GI50.
tested on: IGROV-1; assay: NCI tumour cell line growth inhibition, 48 h
Calls of active or inactive are those of the source. No stated cut-off is given here; in the data, active = GI50 up to about 1.1 µM and inactive = higher.

[ask] Suppose we examine the compound O=[N+]([O-])C(=C(N1CCOCC1)N1CCOCC1)/C(Cl)=C(\Cl)[N+](=O)[O-] ; what GI50 value has been reported?
[reply] 1.41 µM (inactive)

[ask] Suppose we examine the compound Nc1ccc(C(=O)N/C(=C\c2cccc([N+](=O)[O-])c2)c2nc3c4c(ccc3[nH]2)C(=O)c2ccccc2C4=O)cc1 ; what GI50 value has been reported?
[reply] 8.39 µM (inactive)

---

system: K562; assay: NCI tumour cell line growth inhibition, 48 h
The source made the active and inactive calls. Cut-off read from the data, not from the text of the source: active = GI50 up to about 1.1 µM and inactive = higher.
Value type: GI50

[ask] Hi! What's the reported GI50 for CCCNC(/C=C/[Si](C)(C)C)CO.CCCNCC(O)/C=C/[Si](C)(C)C (configuration not stated) on K562?
[reply] > 100 µM (inactive)

[ask] Hi! What's the reported GI50 for C/C([O-])=C(/c1nc(-c2ccc([N+](=O)[O-])o2)no1)[n+]1cc(C)ccc1C on K562?
[reply] 0.692 µM (active)

[ask] Hi! What's the reported GI50 for CN1CCN(c2ccc3nc(-c4cc(O)c5c(nc(CO)n5C)c4O)[nH]c3n2)CC1 on K562?
[reply] 28.8 µM (inactive)

[ask] Hi! What's the reported GI50 for CC(C)(C)CC(C)(C)c1cc2c(O)c(c1)Cc1cc(C(C)(C)CC(C)(C)C)cc(c1O)Cc1cc(C(C)(C)CC(C)(C)C)cc(c1O)Cc1cc(C(C)(C)CC(C)(C)C)cc(c1O)Cc1cc(C(C)(C)CC(C)(C)C)cc(c1O)Cc1cc(C(C)(C)CC(C)(C)C)cc(c1O)Cc1cc(C(C)(C)CC(C)(C)C)cc(c1O)Cc1cc(C(C)(C)CC(C)(C)C)cc(c1O)C2 on K562?
[reply] > 100 µM (inactive)

[ask] Hi! What's the reported GI50 for CC(C)(O)CO/N=C1\C(=C2\C(=O)Nc3ccccc32)Nc2ccccc21 on K562?
[reply] 5.86 µM (inactive)

[ask] Hi! What's the reported GI50 for NC1=C2C(Br)=CN([C@@H]3O[C@H](CO)[C@@H](O)[C@@H]3O)C2C(=O)N=N1 (some centres not stated) on K562?
[reply] 6.67 µM (inactive)

[ask] Hi! What's the reported GI50 for Cn1cnc([N+](=O)[O-])c1Sc1nc2cccnc2[nH]1 on K562?
[reply] 22.8 µM (inactive)

[ask] Hi! What's the reported GI50 for CN(CCCCCl)P(=O)(OCC1=CC(=O)c2ccccc2C1=O)OC[C@H]1O[C@@H](n2cc(F)c(=O)[nH]c2=O)C[C@@H]1O (some centres not stated) on K562?
[reply] 1.5 µM (inactive)

[ask] Hi! What's the reported GI50 for CC1OC(OC2C(CO)OC(O[C@H]3CC[C@@]4(C)C(=CC[C@H]5[C@@H]6C[C@@H]7O[C@](O)(CC[C@H](C)COC8OC(CO)C(O)C(O)C8O)[C@@H](C)[C@@H]7[C@@]6(C)CC[C@@H]54)C3)C(OC3OC(C)C(O)C(O)C3O)C2O)C(O)C(O)C1O (some centres not stated) on K562?
[reply] 2.8 µM (inactive)

[ask] Hi! What's the reported GI50 for CC1(C)CC(=O)C/C(=N/c2ccc([N+](=O)[O-])cc2)C1 on K562?
[reply] 35.6 µM (inactive)

More entries:
[ask] Hi! What's the reported GI50 for O=[N+]([O-])c1ccc2nc3ccc([N+](=O)[O-])cn3c2c1 on K562?
[reply] > 100 µM (inactive)

[ask] Hi! What's the reported GI50 for O=C(O)c1ccc(C(=O)O)c(C(=O)Nc2ccc3c(c2)C(=O)c2ccccc2-3)c1 on K562?
[reply] > 100 µM (inactive)

[ask] Hi! What's the reported GI50 for CC(C)(C)c1cc2c(OP(c3ccccc3)c3ccccc3)c(c1)Cc1cc(C(C)(C)C)cc(c1OP(c1ccccc1)c1ccccc1)Cc1cc(C(C)(C)C)cc(c1OP(c1ccccc1)c1ccccc1)Cc1cc(C(C)(C)C)cc(c1OP(c1ccccc1)c1ccccc1)C2 on K562?
[reply] > 5 µM (inactive)

[ask] Hi! What's the reported GI50 for N=C(N)c1ccc(OCCCCCOc2ccc(C(=N)N)cc2)cc1 on K562?
[reply] 1.92 µM (inactive)

[ask] Hi! What's the reported GI50 for CSc1nc(-c2cc3c(c(SC)n2)CCC3)cc2c1CCC2 on K562?
[reply] > 100 µM (inactive)

[ask] Hi! What's the reported GI50 for CC1=CC(C)(c2c[nH]c3ccccc23)CC(C)(C)c2c1[nH]c1ccccc21 (configuration not stated) on K562?
[reply] 11.9 µM (inactive)

[ask] Hi! What's the reported GI50 for O=[N+]([O-])c1ccc(-[n+]2ccc3ccccc3c2)c([N+](=O)[O-])c1 on K562?
[reply] 1.55 µM (inactive)

---

system: NCI-H226; test: NCI tumour cell line growth inhibition, 48 h
Active and inactive are the calls of the source. Rule as the data show it: active = GI50 up to about 1.1 µM and inactive = higher.
Lab note: assign the record to one of class 1 (active), class 0 (inactive)

Example results:
[ask] For this compound, state the assay outcome: COc1ccc2c(ccc3c(COC(=O)NC(C)C)c(COC(=O)NC(C)C)n(C)c32)c1
[reply] class 0

[ask] For this compound, state the assay outcome: Cc1cccc(C(C)(C)C)c1NC(=O)C(=O)Cc1nc2ccccc2s1
[reply] class 0

[ask] For this compound, state the assay outcome: O=c1[nH]c2nc3ccccc3c(=O)n2/c1=C/c1cccs1
[reply] class 0

More entries:
[ask] For this compound, state the assay outcome: O=C(CSCC(=O)N/N=C/c1ccc2c(c1)OCO2)N/N=C/c1ccc2c(c1)OCO2
[reply] class 0

[ask] For this compound, state the assay outcome: O=C1C2Cc3ccccc3CN2C(=O)N1CN1CCCCC1 (configuration not stated)
[reply] class 0

[ask] For this compound, state the assay outcome: CN(C)c1n/c(=N/c2cccc(Cl)c2)ss1
[reply] class 0

[ask] For this compound, state the assay outcome: Oc1ncnc2c1nnn2CCCCCCCCCCCCn1nnc2c(O)ncnc21
[reply] class 0

[ask] For this compound, state the assay outcome: COc1cccc(CCCNC(=O)Cc2ccccc2CO)c1
[reply] class 0

[ask] For this compound, state the assay outcome: CC(C)CC(=O)NS(=O)(=O)c1ccccc1
[reply] class 0

[ask] For this compound, state the assay outcome: CC(C)(C)c1cc(C2COC(c3cc(C(C)(C)C)c(O)c(C(C)(C)C)c3)CO2)cc(C(C)(C)C)c1O (configuration not stated)
[reply] class 0

[ask] For this compound, state the assay outcome: CN(C)CC1CN(C(=O)Nc2ccccc2)C(=N)O1 (configuration not stated)
[reply] class 0

[ask] For this compound, state the assay outcome: COC(CNC(=O)C(C)NC(=O)/C=C/c1ccccc1)OC (configuration not stated)
[reply] class 0

[ask] For this compound, state the assay outcome: CC(=O)c1cccc(NCn2nnc3ccccc32)c1
[reply] class 0
